Hello, the source for this data is patent US9629822B2, in case you need it.

- Tested on: HIV-1 BaL
- experiment: Anti-HIV assay (luciferase, HIV-1 BaL infection)
- Assay type: cell-based
- assay.conditions: Human immunodeficiency virus 1, BAL, 20 μM, Experiment 2B
measured.attribute: inhibition at 20 µM (%)
Provide the reading as a plain figure in %.

Data request, read-out inhibition at 20 µM, for COc1ccccc1-c1cc(=O)c2c(O)cccc2o1 [Compound 12a] 131

# inhibition at 20 µM lookup, item "CCOc1ccc(Br)cc1-c1oc2ccccc2c(=O)c1O" 14.8

Which inhibition at 20 µM is reported for this compound? "COc1ccc(Cl)cc1-c1oc2ccccc2c(=O)c1O" 7.83

Which inhibition at 20 µM is listed for COc1ccc(Br)cc1-c1cc(=O)c2c(OCc3ccccc3)cccc2o1 [Compound 11b] ? -18.1

Fill blank: measured inhibition at 20 µM of the compound "COc1ccc(Br)cc1-c1oc2ccccc2c(=O)c1O" is ____. -25.9

What does the record list as inhibition at 20 µM for "COc1ccccc1-c1oc2ccccc2c(=O)c1O" ? -21.9

Dear colleague, I am looking for the recorded inhibition at 20 µM of the following compound: "COc1cc(Br)cc(-c2oc3ccccc3c(=O)c2O)c1OC" -23.7

Can you share its inhibition at 20 µM? I mean this compound: "COc1ccc(Br)cc1/C=C/C(=O)c1ccc2ccccc2c1O" 49.9

Any idea what inhibition at 20 µM was measured for COc1ccc(Br)cc1-c1cc(=O)c2c(O)cccc2o1 [Compound 12b] ? 49.1

What value of measured inhibition at 20 µM is listed for "COc1ccc(Br)cc1/C=C/C(=O)c1c(O)cccc1OCc1ccccc1" ? 94.7

Report inhibition at 20 µM for "CCOc1ccc(Cl)cc1-c1oc2ccccc2c(=O)c1O" please. 74.6

###

Would you mind telling me the reported EC50 of each entry?
- target.of.assay: US28 receptor (Human cytomegalovirus)
- Construct: expressed in transfected cells; host or cells: HEK 293T cells, transiently transfected
- Sequence (P69332 whole entry): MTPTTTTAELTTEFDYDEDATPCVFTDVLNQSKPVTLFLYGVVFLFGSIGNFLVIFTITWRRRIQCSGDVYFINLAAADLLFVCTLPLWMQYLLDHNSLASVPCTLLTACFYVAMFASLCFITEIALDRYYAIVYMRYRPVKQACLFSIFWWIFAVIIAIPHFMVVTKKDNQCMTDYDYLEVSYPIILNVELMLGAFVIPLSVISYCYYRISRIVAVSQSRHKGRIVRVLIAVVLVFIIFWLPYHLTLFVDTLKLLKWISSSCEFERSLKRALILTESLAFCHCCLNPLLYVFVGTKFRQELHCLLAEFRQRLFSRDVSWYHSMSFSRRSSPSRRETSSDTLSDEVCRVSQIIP
- experiment: PathDetect trans Elk1 luciferase reporter gene assay in US28-transfected 293T HEK cells
- Type: cell-based, Human Cytomegalovirus (HCMV)
- assay.conditions: EC50 (μM), 293T HEK cells transiently expressing US28, Elk1 reporter; NE = no effect when tested at 10 μM of compound
Express your answer in µM, writing the number without its unit.

Form field: reported EC50 of COc1cc(OC)c(/C=C/C(=O)c2ccccc2O)cc1Br [Compound 8e] 4.9

Find the recorded EC50 belonging to COc1ccc(C)cc1-c1oc2ccccc2c(=O)c1O [Compound 9j] and report it. 1.78

Data request, read-out EC50, for COc1ccccc1-c1cc(=O)c2c(OCc3ccccc3)cccc2o1 [Compound 11a] 7.3

# get_value(readout='EC50', item= COc1ccc(Cl)cc1/C=C/C(=O)c1ccccc1O [Compound 8h] ) 7.8

// returns reported EC50 for input COc1ccc(Br)cc1/C=C/C(=O)c1c(O)cccc1OC [Compound 8f] 6

Quick one: EC50 of COc1ccc(Br)cc1/C=C/C(=O)c1ccccc1O [Compound 8b] ? 7.8

Recorded EC50 of COc1ccc(I)cc1/C=C/C(=O)c1ccccc1O [Compound 8g] , please. 5.5

Entry COc1ccc(Cl)cc1-c1oc2ccccc2c(=O)c1O [Compound 9h] has what EC50? 1.32

For COc1cc(Br)cc(/C=C/C(=O)c2ccccc2O)c1OC [Compound 8d] , what is its reported EC50? 6.7

Which EC50 is listed for COc1ccc(Br)cc1-c1cc(=O)c2ccccc2o1 [Compound 11d] ? 8.1

Field request: EC50 | item: CCOc1ccc(Br)cc1-c1oc2ccccc2c(=O)c1O [Compound 9c] 0.8

Dear colleague, I am looking for the recorded EC50 of the following molecule: CCOc1ccc(Br)cc1/C=C/C(=O)c1ccccc1O [Compound 8c] 5

Query (molecule): CCOc1ccc(Cl)cc1/C=C/C(=O)c1ccccc1O [Compound 8i] ; field requested: EC50 6.4

What value of EC50 has been reported for the following molecule? COc1ccccc1-c1oc2ccccc2c(=O)c1O [Compound 9a] 4.6

###

- Tested on: CHO cells
- experiment: CHO cell toxicity, MTS assay, 48 h
- Assay type: cell-based, Chinese hamster
- assay.conditions: Cricetulus griseus, CHO, 37° C., MTS reagent, read-out: CHO 48 h IC50 value
I'd be grateful if you could share measured pIC50 for these entries.
# pIC50 is unitless: minus log10 of the molar concentration; print number only

What value of pIC50 has been reported for the following compound? "COc1ccc(Cl)cc1/C=C/C(=O)c1ccccc1O" 5.08

Bench note: what pIC50 did COc1ccc(Br)cc1C1CC(=O)c2ccccc2O1 (centres unmarked) [Compound 13b, 2-(5-Bromo-2-methoxyphenyl)chroman-4-one] show? 4.17

pIC50 lookup needed for "COc1ccc(Br)cc1-c1oc2ccccc2c(=O)c1O" , thanks. 4.05

Fill blank: measured pIC50 of the compound "COc1ccc(Br)cc1/C=C/C(=O)c1c(O)cccc1OC" is ____. 5.21

###

- Test system: CHO cells
- experiment: CHO cell toxicity, MTS assay, 48 h
- Type: cell-based, Chinese hamster
- assay.conditions: Cricetulus griseus, CHO, 37° C., MTS reagent, read-out: CHO 48 h IC50 value
- Description: In each case, the chalcone system 8 was more toxic than the corresponding ring-closed system, 9. The CHO assay was conducted to assess the general toxicity of each flavonoid drug. […] The MTS reagent (Promega Cell Titer 96 Aqueous non-radioactive cell proliferation reagent) was added (20 μL) and the CHO cells were incubated for an additional 4h and then absorbance at 490 nm was measured on a BioTek Synergy MX plate reader. […]
measured.attribute: pIC50
Convention used: pIC50 is expressed as -log10 of the molar concentration.

For the compound shown here, COc1ccccc1-c1cc(=O)c2ccccc2o1 [Compound 11c, 2-(2-Methoxyphenyl)-4H-chromen-4-one] , give the reported pIC50. 4.19

Query: pIC50; subject: "COc1ccc(I)cc1-c1oc2ccccc2c(=O)c1O" 4.75

Could you share which pIC50 value was measured for "COc1cc(Br)cc(/C=C/C(=O)c2ccccc2O)c1OC" ? 5.14

Param item = COc1ccc(Br)cc1-c1cc(=O)c2c(O)cccc2o1 [Compound 12b] ; retrieve measured pIC50. 4.12

###

- experiment: TZMbI assay for cell safety (cell viability and growth, CytoTox Glo)
- assay.conditions: human, TZMbI cells, 10 μM, Experiment 2A; read-out: % decrease in viability compared to 0.1% DMSO vehicle based on viable cell luminescence
measured.attribute: cytotoxicity at 10 μM (%)
Give the value, in units of %, as a plain number.

Return reported cytotoxicity at 10 μM; argument: CC[C@H](C)[C@@H]1NC(=O)CNC(=O)[C@H](CCCCN)NC(=O)CNC(=O)[C@@H]2CSSC[C@H](NC1=O)C(=O)N[C@@H](CCCNC(=N)N)C(=O)N[C@H]1CSSC[C@H](NC(=O)[C@H](CCCNC(=N)N)NC(=O)[C@@H]3CSSC[C@H](NC(=O)[C@H]([C@@H](C)CC)NC1=O)C(=O)NCC(=O)N[C@@H](CCCNC(=N)N)C(=O)NCC(=O)N[C@@H]([C@@H](C)CC)C(=O)N3)C(=O)N[C@@H]([C@@H](C)CC)C(=O)N2 [RC-101, reference compound] -1.43

###

So I've got a bunch of compounds here, and I need their melting point values.

Tell me the measured melting point of COc1ccc(Br)cc1-c1cc(=O)c2c(O)cccc2o1 [Compound 12b] , please. 175 to 180 °C

Look at this compound and give its reported melting point. COc1ccc(Br)cc1/C=C/C(=O)c1ccc2ccccc2c1O [Compound 8m] 117 to 127 °C

State the recorded melting point for this entry: CCOc1ccc(Br)cc1-c1oc2ccccc2c(=O)c1O [Compound 9c] 149 to 155 °C

Field request: melting point | item: CCOc1ccc(Cl)cc1-c1oc2ccccc2c(=O)c1O [Compound 9i] 156 to 159 °C

Form field: reported melting point of COc1ccc(C)cc1/C=C/C(=O)c1ccccc1O [Compound 8j] 69 to 72 °C

What measured melting point goes with COc1ccc(C)cc1-c1oc2ccccc2c(=O)c1O [Compound 9j] ? 158 to 164 °C

Name the recorded melting point for COc1ccc(I)cc1/C=C/C(=O)c1ccccc1O [Compound 8g] . 107 to 109 °C

Need melting point, item COc1cc(Br)cc(-c2oc3ccccc3c(=O)c2O)c1OC [Compound 9d] 153 to 158 °C

Requested field: melting point. Item: COc1cc(Br)cc(/C=C/C(=O)c2ccccc2O)c1OC [Compound 8d] 122 to 124 °C

Endpoint output: melting point of COc1cc(OC)c(-c2oc3ccccc3c(=O)c2O)cc1Br [Compound 9e] . Value? 196 to 201 °C

Query: melting point; subject: COc1ccc(Cl)cc1-c1oc2ccccc2c(=O)c1O [Compound 9h] 160 to 167 °C

What value of melting point has been recorded for this entry: COc1ccc(Cl)cc1C1CC(=O)c2ccccc2O1 (stereo not shown) [Compound 13h] 51 to 60 °C

Which melting point is listed for CCOc1ccc(Cl)cc1/C=C/C(=O)c1ccccc1O [Compound 8i] ? 61 to 65 °C

# melting point lookup, item COc1cc(OC)c(/C=C/C(=O)c2ccccc2O)cc1Br [Compound 8e] 153 to 157 °C

Which melting point value belongs to COc1ccc(I)cc1-c1oc2ccccc2c(=O)c1O [Compound 9g] ? 153 to 159 °C

What melting point value was documented for this compound, COc1ccc(Br)cc1-c1oc2cccc(OC)c2c(=O)c1O [Compound 9f] ? 207 to 213 °C

melting point for COc1ccc(Br)cc1-c1cc(=O)c2ccccc2o1 [Compound 11d] ? 161 to 164 °C

So what's the measured melting point for this one? COc1ccc(Cl)cc1/C=C/C(=O)c1ccccc1O [Compound 8h] 81 to 82 °C

Endpoint output: melting point of COc1ccc(Br)cc1-c1oc2ccccc2c(=O)c1O [Compound 9b] . Value? 159 to 161 °C
